measurementTarget: cyp2c11 (Rattus norvegicus, UniProt P08683)
Sequence (P08683 1-500): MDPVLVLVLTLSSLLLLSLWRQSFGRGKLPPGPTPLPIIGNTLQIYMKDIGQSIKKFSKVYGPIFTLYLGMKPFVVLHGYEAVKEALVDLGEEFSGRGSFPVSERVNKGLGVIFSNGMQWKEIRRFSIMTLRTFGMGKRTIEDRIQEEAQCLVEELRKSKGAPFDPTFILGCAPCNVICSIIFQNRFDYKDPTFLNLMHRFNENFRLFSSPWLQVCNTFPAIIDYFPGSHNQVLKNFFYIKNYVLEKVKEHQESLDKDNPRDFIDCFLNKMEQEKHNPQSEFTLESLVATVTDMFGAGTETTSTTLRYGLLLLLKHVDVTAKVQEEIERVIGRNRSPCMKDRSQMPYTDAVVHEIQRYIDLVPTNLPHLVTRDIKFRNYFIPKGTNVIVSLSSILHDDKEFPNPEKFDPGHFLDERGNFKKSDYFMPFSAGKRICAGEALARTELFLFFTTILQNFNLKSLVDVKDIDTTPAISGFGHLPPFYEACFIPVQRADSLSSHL
pIC50: −log10 of the molar value.
metricName: pIC50

{"molecule": "C=CC(=O)Nc1cccc(Oc2nc(Nc3ccc(N4CCN(C)CC4)c(F)c3)nc3[nH]ccc23)c1", "measurementTarget": "cyp2c11 (Rattus norvegicus, UniProt P08683)", "endpointValue": 4.37}
